Test system: dengue virus type 4
Assay: Antiviral activity against DENV4 after 48 hrs by qRT-PCR analysis
Assay type: functional, organism-based
quantity name: EC50

// query Give the reported EC50 for NCC(=O)Nc1ccc(-n2nc(C(F)(F)F)cc2-c2ccc3c(ccc4ccccc43)c2)cc1 (system: dengue virus type 4).
// result 600 to 800 nM

----------
Tested on: dengue virus type 2
Experiment: Antiviral activity against DENV2 16681 infected in human Huh7 cells by luciferase reporter gene assay
Assay type: functional, organism-based
Conditions: Dengue virus, 16681, Huh-7
quantity name: EC50
Please make sure the unit comes right after the number.

// query What value of EC50 has been recorded for this entry: C/C(=C\[C@H](C)C(=O)C[C@H](O)CC1CC(=O)NC(=O)C1)[C@@H]1OC(=O)/C=C/CC/C=C/C=C\[C@@H]1C
// result 400 nM

----------
Target: UniProt P29990
Experiment: Inhibition of His-tagged DENV2 NS2B-NS3 serine protease
quantity name: pIC50
Give bare numbers, as −log10 of the molar value.

// query Value lookup for pIC50; key = COC(=O)c1[nH]c2ccc(Cl)cc2c1C(=O)c1cc(OC)c(O)c(OC)c1
// result 5.33

----------
Tested on: dengue virus type 4
Assay: Antiviral activity against DENV4 Dakar infected in African green monkey Vero E6 cells after 3 to 4 days by RT-PCR analysis
Assay type: functional, organism-based
Details: Vero C1008
pIC50: −log10 of the molar value.
quantity name: pIC50

// query Look up pIC50 for this compound: O=C(N[C@@H](Cc1ccc(O)cc1)C(=O)O)c1cc(-c2ccccc2)c(=O)n2c1sc1ccc(OC3CCCCC3)cc12
// result 4.82 to 5.17

----------
Test system: dengue virus type 1
Assay: Antiviral activity against DENV1 infected in human Huh7 cells assessed as reduction in viral yield after 48 hrs by MTT assay
Assay type: functional, organism-based
Details: Huh-7, 48 h, pooled result: one value given for 4 cell lines, strains, targets or settings
quantity name: IC50 (µM)
Numbers only, in µM.

// query So what does the record say about IC50 for O=C1[C@H](CC[C@H](O)c2ccc(F)cc2)[C@@H](c2ccc(O)cc2)N1c1ccc(F)cc1 [EZETIMIBE] ?
// result 13.1

----------
Biological target: Nonstructural protein 5 (Dengue virus, UniProt V5TFZ2)
Sequence (V5TFZ2 whole entry): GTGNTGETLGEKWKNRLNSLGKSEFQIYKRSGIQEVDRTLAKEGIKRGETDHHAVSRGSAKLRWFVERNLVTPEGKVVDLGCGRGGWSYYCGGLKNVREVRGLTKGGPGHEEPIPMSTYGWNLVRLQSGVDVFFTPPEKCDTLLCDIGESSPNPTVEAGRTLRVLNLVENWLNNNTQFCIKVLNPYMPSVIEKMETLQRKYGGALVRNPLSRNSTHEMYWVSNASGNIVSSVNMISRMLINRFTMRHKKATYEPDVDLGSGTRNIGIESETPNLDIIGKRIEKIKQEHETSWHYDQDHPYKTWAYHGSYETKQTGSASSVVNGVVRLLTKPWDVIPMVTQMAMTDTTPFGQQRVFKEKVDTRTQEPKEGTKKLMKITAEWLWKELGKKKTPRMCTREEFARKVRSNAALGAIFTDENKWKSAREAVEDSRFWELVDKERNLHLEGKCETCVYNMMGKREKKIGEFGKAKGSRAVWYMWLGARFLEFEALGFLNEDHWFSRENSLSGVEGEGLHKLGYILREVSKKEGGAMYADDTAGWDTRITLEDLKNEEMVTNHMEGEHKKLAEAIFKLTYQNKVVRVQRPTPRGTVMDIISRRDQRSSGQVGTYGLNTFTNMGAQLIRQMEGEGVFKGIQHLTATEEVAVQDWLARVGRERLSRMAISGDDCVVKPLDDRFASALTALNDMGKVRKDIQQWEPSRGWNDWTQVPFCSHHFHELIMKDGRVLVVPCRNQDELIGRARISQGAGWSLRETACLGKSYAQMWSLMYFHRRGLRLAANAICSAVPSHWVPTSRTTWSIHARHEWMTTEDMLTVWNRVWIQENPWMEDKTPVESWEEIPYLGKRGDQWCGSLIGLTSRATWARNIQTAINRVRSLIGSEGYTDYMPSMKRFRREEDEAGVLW
Assay: Inhibition of dengue virus NS5 RNA dependent RNA polymerase
pIC50: −log10 of the molar value.
Assignment: determine reported pIC50 for the given compounds.

- compound: "C=C(C)[C@@H]1CC[C@]2(C(=O)O)CC[C@]3(C)[C@H](CC[C@@H]4[C@@]5(C)CC[C@H](O)C(C)(C)[C@@H]5CC[C@]43C)[C@@H]12 [BETULINIC ACID]"
  observed measurement: "5.68 to 5.77"

Let us examine a further case.
// query Quick check: pIC50 of C[C@@H]1O[C@@H](Oc2c(-c3ccc(O)c(O)c3)oc3cc(O)cc(O)c3c2=O)[C@H](O)[C@H](O)[C@H]1O [QUERCITRIN] ?
// result 5.68 to 5.77

----------
Tested on: dengue virus type 4
Assay: Antiviral activity against DENV4 TVP360 infected in human Huh7.5 cells after 72 hrs by flow cytometric analysis
Assay type: functional, organism-based
Details: TVP360, Huh7.5, 72 h
pEC50: −log10 of the molar value.
quantity name: pEC50

// query Could you share which pEC50 value was measured for O=C1C[C@@H](c2ccc(O)cc2)Oc2cc(O)cc(O)c21 ?
// result 3.75 to 4.45

----------
Molecular target: Genome polyprotein (dengue virus type 2, UniProt P29990)
Assay: Inhibition of DENV2 NS2B-NS3 serine protease expressed in human Huh7 cells after 3 days by Phospha-Light SEAP reporter gene Assay
Assay type: cell-based
quantity name: IC50 (µM)
One number for each entry, in µM.

// query Can you look up the measured IC50 of COC(=O)c1[nH]c2ccc(Cl)cc2c1C(=O)c1cc(OC)c(O)c(OC)c1 for me?
// result 6.7

----------
Target: Nonstructural protein 5 (Dengue virus, UniProt V5TFZ2)
Experiment: Inhibition of DENV2 2'-O-methyltransferase using m7G*pppA-RNA as substrate
Design: species or system dengue virus type 2
quantity name: IC50

// query Fill in: IC50 of CC1=C(Nc2c(C)cc(O)cc2O)C(=O)C=c2oc3c(c21)C(C)=C(Nc1c(C)cc(O)cc1O)C(=O)C=3 is ___
// result 2.3 to 21 µM

----------
Assay: Inhibition of DENV3 N7-methyltransferase using G*pppA-RNA as substrate
Parameters: species or system dengue virus type 3
quantity name: IC50

// query Can you look up the measured IC50 of CC1=C(Nc2c(C)cc(O)cc2O)C(=O)C=c2oc3c(c21)C(C)=C(Nc1c(C)cc(O)cc1O)C(=O)C=3 for me?
// result 28 to 32 µM

----------
Tested on: dengue virus type 3
Assay: Antiviral activity against DENV3 infected in BHK cells assessed as reduction in viral replication
Type: functional, organism-based
quantity name: EC50

// query I am curious: what EC50 value has been reported for O=C(NO)c1ncc(CS(=O)(=O)c2ccccc2)c(CO)c1O ?
// result 2200 to 2800 nM

----------
Target: Genome polyprotein (dengue virus type 2, UniProt P29990)
Assay: Inhibition of Dengue virus NS2B-NS3 serine protease expressed in mouse RAW 264.7 cells
Assay type: cell-based
quantity name: EC50
In your response, put the unit directly after the numeric value.

// query API: value(readout= EC50, system= Genome polyprotein (dengue virus type 2, UniProt P29990), query= CC(=O)O[C@H]1CC(C)(C)C(=C=C/C(C)=C/C=C/C=C/C=C(C)/C=C2C=C(/C=C/[C@@]34O[C@]3(C)C[C@@H](O)CC4(C)C)C(=O)O/2)[C@](C)(O)C1 )
// result 8.5 µM

----------
Test system: dengue virus type 4
Test: Antiviral activity against DENV4 infected in mouse RAW 264.7 cells by MTT assay
Format: functional, organism-based
Conditions: RAW264.7
pEC50: −log10 of the molar value.
quantity name: pEC50

// query Could you share which pEC50 value was measured for CC(=O)O[C@H]1CC(C)(C)C(=C=C/C(C)=C/C=C/C=C/C=C(C)/C=C2C=C(/C=C/[C@@]34O[C@]3(C)C[C@@H](O)CC4(C)C)C(=O)O/2)[C@](C)(O)C1 ?
// result 5.12 to 5.23
